Every entry's value here was drawn from the supplement of paper PMC6555819.

system: RARg:RXRa (NR concentration 270 nM, RXRa partner concentration 90 nM); assay: PBM binding z-score (relative to random genomic background probes); higher = stronger binding; sequences stand for … in GC…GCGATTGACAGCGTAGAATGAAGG
outcome-measure: PBM binding z-score
Lab note: write the figure by itself, no unit.

biosequence=CAAACTAGGTCAAGAGGTCAAAGTGCGCTTCCCG experimental_result=8.27
biosequence=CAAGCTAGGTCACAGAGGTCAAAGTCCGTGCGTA experimental_result=7.64
biosequence=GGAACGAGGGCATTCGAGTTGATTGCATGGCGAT experimental_result=1.07
biosequence=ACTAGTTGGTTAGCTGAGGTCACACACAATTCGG experimental_result=3.62
biosequence=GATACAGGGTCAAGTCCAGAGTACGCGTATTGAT experimental_result=5.8

## Input For TAGCCTAGATCATGGGCCAGTATACCACGCGAAC , what is its reported PBM binding z-score?
## Output -0.301

## Input Entry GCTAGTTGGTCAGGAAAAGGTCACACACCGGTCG : reported PBM binding z-score = ?
## Output 5.34

## Input What value of PBM binding z-score has been reported for the following sequence? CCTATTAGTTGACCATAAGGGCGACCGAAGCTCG
## Output 0.591

## Input Can you share its PBM binding z-score? I mean this sequence: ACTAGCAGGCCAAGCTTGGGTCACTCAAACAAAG
## Output 2.09

## Input Which PBM binding z-score value belongs to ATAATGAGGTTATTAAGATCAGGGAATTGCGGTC ?
## Output 1.39

## Input Which PBM binding z-score value belongs to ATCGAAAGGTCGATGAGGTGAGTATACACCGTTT ?
## Output 3.5

## Input Would you mind telling me what PBM binding z-score value was observed for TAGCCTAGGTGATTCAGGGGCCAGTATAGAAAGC ?
## Output 0.914

## Input Requested read-out: PBM binding z-score. Entry: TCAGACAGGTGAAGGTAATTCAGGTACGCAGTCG
## Output 0.717

## Input Fill in: PBM binding z-score of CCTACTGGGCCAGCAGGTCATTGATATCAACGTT is ___
## Output 2.03

----------
PBM binding z-score: recorded values
tested on: PPARg DBDmut:RXRa IVT, anti-PPARg (DBD mutation: PPARg1 K132A/R137A, NR concentration 270 nM, RXRa partner concentration 90 nM); assay: PBM binding z-score (relative to random genomic background probes); higher = stronger binding; sequences stand for … in GC…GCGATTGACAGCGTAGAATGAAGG
Lab note: record the figure alone, no unit after it.

## Input # PBM binding z-score lookup, item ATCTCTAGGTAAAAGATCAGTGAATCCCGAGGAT
## Output 1.02

## Input What PBM binding z-score value was documented for this sequence, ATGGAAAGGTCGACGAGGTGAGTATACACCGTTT ?
## Output 0.736

----------
test system: THRa:RXRa (NR concentration 90 nM, RXRa partner concentration 90 nM); assay: PBM binding z-score (relative to random genomic background probes); higher = stronger binding; sequences stand for … in GC…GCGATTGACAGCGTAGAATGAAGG
Tick t if PBM binding z-score is 3 or greater. Tick f if PBM binding z-score is less than 3.

These recorded examples may help you get a feel for the data.
biosequence=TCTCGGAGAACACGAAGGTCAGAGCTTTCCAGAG qualitative_label=f
biosequence=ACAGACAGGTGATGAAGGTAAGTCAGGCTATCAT qualitative_label=f
biosequence=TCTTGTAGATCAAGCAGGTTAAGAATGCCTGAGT qualitative_label=f
biosequence=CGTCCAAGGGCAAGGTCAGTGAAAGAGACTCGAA qualitative_label=f
biosequence=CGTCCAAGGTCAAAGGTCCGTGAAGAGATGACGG qualitative_label=t
biosequence=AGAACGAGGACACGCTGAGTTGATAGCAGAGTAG qualitative_label=t
biosequence=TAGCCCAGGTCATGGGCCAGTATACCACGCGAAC qualitative_label=t
biosequence=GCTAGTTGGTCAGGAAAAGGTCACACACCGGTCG qualitative_label=t
biosequence=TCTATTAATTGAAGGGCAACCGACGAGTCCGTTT qualitative_label=f
biosequence=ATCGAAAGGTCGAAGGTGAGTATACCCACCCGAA qualitative_label=f

## Input Check if PBM binding z-score >= 3 (inclusive). Item: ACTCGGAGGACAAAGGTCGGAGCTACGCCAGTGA
## Output f

## Input State whether the measured PBM binding z-score reaches 3, counting equality as reaching it, for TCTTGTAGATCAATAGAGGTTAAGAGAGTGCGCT
## Output f

## Input Determine whether measured PBM binding z-score meets or exceeds 3 for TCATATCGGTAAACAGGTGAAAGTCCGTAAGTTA
## Output f

## Input I'd appreciate it if you could say whether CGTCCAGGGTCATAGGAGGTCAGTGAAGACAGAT has PBM binding z-score at least equal to 3.
## Output t

----------
tested on: RARg:RXRa (NR concentration 270 nM, RXRa partner concentration 90 nM); experiment: PBM binding z-score (relative to random genomic background probes); higher = stronger binding; sequences stand for … in GC…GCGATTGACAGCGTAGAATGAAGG
Rule: PBM binding z-score under 0.2 gives false, otherwise true.

Known results for sequences:
biosequence=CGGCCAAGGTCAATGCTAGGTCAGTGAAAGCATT qualitative_label=true
biosequence=CGAACGAGCGCATGAGTTGATAGCAAATGCCGAT qualitative_label=false
biosequence=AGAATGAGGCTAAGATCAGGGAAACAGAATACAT qualitative_label=true
biosequence=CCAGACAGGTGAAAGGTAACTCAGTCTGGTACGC qualitative_label=true
biosequence=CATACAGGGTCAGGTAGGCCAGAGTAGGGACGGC qualitative_label=true

Could you now consider this next sequence?
## Input PBM binding z-score >= 0.2 for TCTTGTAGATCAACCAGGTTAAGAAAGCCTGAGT ?
## Output false

----------
test system: RARb:RXRa (NR concentration 270 nM, RXRa partner concentration 90 nM); assay: PBM binding z-score (relative to random genomic background probes); higher = stronger binding; sequences stand for … in GC…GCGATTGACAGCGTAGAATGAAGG
Label true (1) for high-side PBM binding z-score (at or above 3) and false (0) for low-side PBM binding z-score (below it).

biosequence=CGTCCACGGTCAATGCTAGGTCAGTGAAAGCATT qualitative_label="true (1)"
biosequence=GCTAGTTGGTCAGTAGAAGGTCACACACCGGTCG qualitative_label="true (1)"
biosequence=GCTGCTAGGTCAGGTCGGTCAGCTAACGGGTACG qualitative_label="true (1)"
biosequence=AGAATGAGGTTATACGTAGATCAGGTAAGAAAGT qualitative_label="false (0)"

Now for another entry.
## Input Is reported PBM binding z-score greater than or equal to 3 here: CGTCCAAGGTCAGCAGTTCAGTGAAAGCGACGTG
## Output true (1)

----------
tested on: PXR homodimer (NR concentration 270 nM); assay: PBM binding z-score (relative to random genomic background probes); higher = stronger binding; sequences stand for … in GC…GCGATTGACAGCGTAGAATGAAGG
outcome-measure: PBM binding z-score

biosequence=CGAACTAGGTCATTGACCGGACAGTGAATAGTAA experimental_result=-0.102
biosequence=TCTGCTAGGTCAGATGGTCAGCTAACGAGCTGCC experimental_result=-0.95
biosequence=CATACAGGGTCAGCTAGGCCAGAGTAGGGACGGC experimental_result=-0.17
biosequence=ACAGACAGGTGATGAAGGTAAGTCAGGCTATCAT experimental_result=-0.234
biosequence=CGTTACGGGTCAAGGTTATAGCACGGGTGGTACG experimental_result=0.111
biosequence=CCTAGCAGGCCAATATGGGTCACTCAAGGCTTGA experimental_result=-0.649

## Input # query: PBM binding z-score of entry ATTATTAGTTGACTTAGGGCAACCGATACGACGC
## Output 1.53

## Input Dear colleague, I am looking for the recorded PBM binding z-score of the following sequence: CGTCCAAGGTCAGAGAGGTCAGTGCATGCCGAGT
## Output 11.5

## Input I would be grateful if you could share the reported PBM binding z-score for CCTCGTTGGTCAGGAGGTCACACACCGGATATGA .
## Output 0.821

## Input Entry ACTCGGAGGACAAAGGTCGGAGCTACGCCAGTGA : reported PBM binding z-score = ?
## Output -0.332

## Input Give the measured PBM binding z-score of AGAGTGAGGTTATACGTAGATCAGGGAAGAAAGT .
## Output 1.28

## Input Item under review: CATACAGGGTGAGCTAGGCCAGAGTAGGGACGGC . Reported PBM binding z-score?
## Output -0.379
